Values were extracted from ChEMBL document CHEMBL5260836.

- protocol text: Unbound fraction in human blood
- Type: ADME, tissue-based
reported metric: fraction unbound
The reply should be a number, written without any unit.

Query string: Looking for the measured fraction unbound of Cc1ncc(C(=O)Nc2cn3ccnc3c(CN3CCN(C(=O)C4CCCC4)[C@@H](C)C3)c2C)cn1 , can you help?
Result string: 0.312

* * *

- protocol text: Inhibition of human Th17 cell differentiation
- Assay type: functional, cell-based
reported metric: IC50
I'd appreciate it if you wrote the number followed by its unit.

Query string: State the recorded IC50 for this entry: Cc1ncc(C(=O)Nc2cc(F)cc(CN3CCN(C(=O)C4CCCC4)[C@@H](C)C3)c2C)cn1
Result string: 31 nM
